The reported numbers originate from the supplement of paper PMC10567573.

B1: NR2F2 (parent)
chain: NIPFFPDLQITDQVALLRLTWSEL

- Variants of: B1
- RUN_DESCRIPTION: protein stability index of a GFP-peptide fusion (GPS, HEK-293T) (PSI 1-6); higher = more stable;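 also: lentivirally expressed fusions sorted by FACS into six bins by GFP to DsRed ratio, PSI derived from sequencing read proportions per bin multiplied by bin number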
- RECORDED_CONDITIONS: c terminus: a fixed tail appended
MEASURED_PROPERTY: protein stability index
Answer as a number with no unit attached.

Solved cases below.
Q9V: 4.4
F5L: 1.56
T11K: 2.55
V14Y: 2.03
S22D: 2.4
V14F: 2.04

### Prompt Using the record for P6R , report its protein stability index.
### Response 1.51
